The reported numbers originate from PubChem BioAssay.

biological target: Alpha-bungarotoxin (Bungarus multicinctus) (UniProt P60615); assay: alpha-bungarotoxin binders on microarray, profiling panel, artefact control for SMM control protein annotation, biochemical, small-molecule microarray, Alexa647 label, 635/667 nm fluorescence (AID 1117); settings: alpha-BTX-A647 binding fluorescence, higher = more signal
Sequence (P60615 whole entry, looked up): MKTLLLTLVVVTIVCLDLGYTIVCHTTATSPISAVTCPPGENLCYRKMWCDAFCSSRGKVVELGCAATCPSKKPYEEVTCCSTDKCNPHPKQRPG
This section presents compounds with their documented composite z-score values.

Completed entries (count: 2):
C#CCCCON=C1C[C@@H](O)[C@@H](O)[C@@H]2[C@@H]3C(=O)N(CC)C(=O)[C@@H]3CC[C@H]12 | 0.573
CCOC(=O)CCN1C(=O)[C@H]2[C@@H]3C(=CC[C@H]2C1=O)C(=O)[C@H]1O[C@H]1[C@H]3O | -0.473

What does the data say about its composite z-score? Entry: "CCN1C(=O)[C@H]2[C@H]3[C@H](O)[C@H](O)CC(=NNC(=O)OCc4ccccc4)[C@H]3CC[C@H]2C1=O"
0.504

What does the data say about its composite z-score? Entry: "CO[C@@H]1COC(=O)[C@H](CCSC)NC(=O)CC=C[C@@H](C)COC(=O)[C@@H]2CCCN2C(=O)CC=C[C@H]1C"
-0.245

What does the data say about its composite z-score? Entry: "COc1ccc(COC(=O)NN=C2C[C@@H](O)[C@@H](O)[C@@H]3[C@@H]4C(=O)N(C5CCCCC5)C(=O)[C@@H]4CC[C@@H]23)cc1"
0.229

What does the data say about its composite z-score? Entry: "CC(=O)OC[C@H]1O[C@H](CC=NOCC[C@@H]2C=C[C@H](OC(C)=O)[C@@H](COC(C)=O)O2)C=C[C@@H]1OC(C)=O"
0.408

What does the data say about its composite z-score? Entry: "C=CC[C@@H]1C=C[C@H](ON=C[C@@H](NS(=O)(=O)c2ccc(C)cc2)[C@H](C)C=CCC(=O)OC)[C@@H](CO)O1"
0.452

What does the data say about its composite z-score? Entry: "CCOC(=O)CCN1C(=O)[C@H]2[C@H]3[C@H](O)[C@H](O)CC(=NOCC=C(C)CCC=C(C)C)[C@@H]3CC[C@H]2C1=O"
-0.0599

What does the data say about its composite z-score? Entry: "CO[C@H]1COC(=O)CC=C[C@@H](C)COC(=O)[C@H]2CCCN2C(=O)CC=C[C@H]1C"
-1.25

What does the data say about its composite z-score? Entry: "COC(=O)[C@H](CCSC)NC(=O)CC=C[C@@H](C)CO"
-0.614

What does the data say about its composite z-score? Entry: "COC(=O)[C@@H]1CC[C@H](C)[C@@H](c2ccc(Br)cc2)N1"
0.234

What does the data say about its composite z-score? Entry: "CCN1C(=O)[C@H]2[C@H]3[C@H](O)[C@H](O)CC(=NO[C@@H](C)c4cc(-c5c(C)cc(C)cc5C)no4)[C@@H]3CC[C@H]2C1=O"
1.02

What does the data say about its composite z-score? Entry: CCOC(=O)[C@H](CC(C)C)NC(=O)CCC1CC(OC(=O)NCc2ccc3c(c2)OCO3)CC2(CCCC(COC(=O)NCc3ccccc3)O2)O1 (stereo partly specified)
0.461

What does the data say about its composite z-score? Entry: "CC(=O)OC[C@H]1O[C@H](CCON=C(C)CCN2CCCc3nc(C)c(C)cc32)C=C[C@@H]1OC(C)=O"
0.133

What does the data say about its composite z-score? Entry: "CCOC(=O)CCN1C(=O)[C@H]2[C@H]3[C@H](O)[C@H](O)CC(=NNC(=O)OCC)[C@H]3CC[C@H]2C1=O"
-0.798

What does the data say about its composite z-score? Entry: "CCN1C(=O)[C@H]2[C@@H]3C(=CC[C@H]2C1=O)C(=O)[C@H]1O[C@H]1[C@H]3O"
0.0607
